system under test: human PCSK9 (human, UniProt Q8NBP7 31-692)
Sequence (Q8NBP7 31-692 limits assumed): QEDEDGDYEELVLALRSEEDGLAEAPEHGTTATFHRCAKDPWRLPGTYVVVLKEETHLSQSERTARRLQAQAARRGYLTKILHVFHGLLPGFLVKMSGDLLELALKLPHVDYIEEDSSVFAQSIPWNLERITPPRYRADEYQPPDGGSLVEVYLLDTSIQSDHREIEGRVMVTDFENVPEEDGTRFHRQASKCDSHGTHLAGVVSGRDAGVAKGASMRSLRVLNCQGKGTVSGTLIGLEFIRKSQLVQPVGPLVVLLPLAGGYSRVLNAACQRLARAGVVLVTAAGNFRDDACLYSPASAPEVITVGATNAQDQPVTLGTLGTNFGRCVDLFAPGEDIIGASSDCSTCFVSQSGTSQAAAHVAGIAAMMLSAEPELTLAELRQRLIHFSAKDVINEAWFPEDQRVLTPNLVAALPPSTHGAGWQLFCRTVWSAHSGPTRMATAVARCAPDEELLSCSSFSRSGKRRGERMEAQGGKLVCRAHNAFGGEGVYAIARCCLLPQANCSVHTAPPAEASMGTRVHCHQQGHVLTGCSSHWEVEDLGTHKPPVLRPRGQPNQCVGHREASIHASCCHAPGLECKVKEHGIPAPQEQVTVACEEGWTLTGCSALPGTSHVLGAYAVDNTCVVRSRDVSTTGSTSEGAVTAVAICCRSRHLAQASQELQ
assay text: cell-based or functional assay
Could you please report measured Fab IC50 (nM), inhibition of PCSK9 on LDL uptake for the items listed next?
# output: bare number, implied unit nM

-- ask Reported Fab IC50 (nM), inhibition of PCSK9 on LDL uptake for AX211 Fab (Fab, V domains shown) VH: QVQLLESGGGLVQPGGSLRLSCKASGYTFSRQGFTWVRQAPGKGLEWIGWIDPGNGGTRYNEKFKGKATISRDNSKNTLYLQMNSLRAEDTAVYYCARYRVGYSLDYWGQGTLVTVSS VL: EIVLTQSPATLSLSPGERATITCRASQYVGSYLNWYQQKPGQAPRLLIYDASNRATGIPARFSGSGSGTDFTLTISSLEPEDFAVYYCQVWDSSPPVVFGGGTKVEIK : what is it?
-- reply 12.6

-- ask Reported Fab IC50 (nM), inhibition of PCSK9 on LDL uptake for AX212 Fab (Fab, V domains shown) VH: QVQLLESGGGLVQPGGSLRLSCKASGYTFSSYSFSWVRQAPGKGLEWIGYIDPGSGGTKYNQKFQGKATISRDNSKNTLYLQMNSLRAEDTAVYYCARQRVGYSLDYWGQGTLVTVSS VL: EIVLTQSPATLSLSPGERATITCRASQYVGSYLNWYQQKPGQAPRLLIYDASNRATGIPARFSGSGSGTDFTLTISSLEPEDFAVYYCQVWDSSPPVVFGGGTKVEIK : what is it?
-- reply 13.8
